Test: Solubility in organic acid buffers (fumaric, aspartic, glutamic acid)
Conditions: pH 3.7, aqueous buffer

{"smiles.str": "O=C1CN=C(c2ccccc2Cl)c2cc([N+](=O)[O-])ccc2N1", "solubility (µg/mL)": 9.8}

---

Experiment: physchem
Settings: pH 5.09, aqueous buffer, Solubility of Iloperidone in Aqueous Buffer
quantity.measured: solubility (µg/mL)

{"compound": "COc1cc(C(C)=O)ccc1OCCCN1CCC(c2noc3cc(F)ccc23)CC1 [Iloperidone]", "unit.text": "µg/mL", "readout.value": 341}

---

Assay: physchem
Details: pH 1.2, simulated gastric fluid, Solubility of Iloperidone in Aqueous Buffer

{"smiles.str": "COc1cc(C(C)=O)ccc1OCCCN1CCC(c2noc3cc(F)ccc23)CC1", "solubility [µg/mL]": 3900}

---

Assay: physchem
Conditions: pH 2.2, aqueous buffer, Solubility of Ondansetron HCl in Aqueous Buffer
Structures can show the parent of a compound that is named as a salt.

{"molecule": "Cc1nccn1CC1CCc2c(c3ccccc3n2C)C1=O (stereo not shown) [Ondansetron HCl, ondansetron hydrochloride]", "solubility / mg/mL": 23.3}

---

Assay: physchem
Conditions: pH 2.75, aqueous buffer
Structures can show the parent of a compound that is named as a salt.

{"compound": "Cc1nccn1CC1CCc2c(c3ccccc3n2C)C1=O (stereo not shown) [Ondansetron HCl, ondansetron hydrochloride]", "solubility [mg/mL]": 26.2}

---

Test: physchem
Conditions: pH 6.8, aqueous buffer, solubility
Structures can show the parent of a compound that is named as a salt.
Reported solubility is given for each of the following compounds.

{"compound": "Cc1nccn1CC1CCc2c(c3ccccc3n2C)C1=O (centres unmarked) [Ondansetron HCl, ondansetron hydrochloride]", "solubility": "< 50 µg/mL"}
{"compound": "COc1cc(C(C)=O)ccc1OCCCN1CCC(c2noc3cc(F)ccc23)CC1", "solubility": "~30 µg/mL"}

---

Experiment: Solubility in organic acid buffers (fumaric, aspartic, glutamic acid)
Settings: pH 2.3, aqueous buffer
quantity.measured: solubility (µg/mL)

{"smiles.str": "O=C1CN=C(c2ccccc2Cl)c2cc([N+](=O)[O-])ccc2N1", "unit.text": "µg/mL", "readout.value": 11.6}

---

Test: pH-dependent solubility in aqueous buffer
Conditions: pH 2.2, aqueous buffer
quantity.measured: solubility (µg/mL)

{"smiles.str": "O=C1CN=C(c2ccccc2Cl)c2cc([N+](=O)[O-])ccc2N1", "readout.value": 11.4}

---

Assay: physchem
Conditions: pH 6.8, aqueous buffer, Solubility of Ondansetron HCl in Aqueous Buffer
Counter-ions that a name gives are not always drawn.

{"compound": "Cc1nccn1CC1CCc2c(c3ccccc3n2C)C1=O (stereo not shown) [Ondansetron HCl, ondansetron hydrochloride]", "solubility, mg/mL": 0.036}

---

Assay: physchem
Details: pH 2.14, aqueous buffer
Counter-ions that a name gives are not always drawn.

{"compound": "Cc1nccn1CC1CCc2c(c3ccccc3n2C)C1=O (stereo not shown) [Ondansetron HCl, ondansetron hydrochloride]", "solubility [mg/mL]": 27}

---

Assay: pH-dependent solubility in aqueous buffer
Settings: pH 3.2, aqueous buffer
quantity.measured: solubility (µg/mL)

{"smiles.str": "O=C1CN=C(c2ccccc2Cl)c2cc([N+](=O)[O-])ccc2N1", "readout.value": 9.6}

---

Assay: physchem
Settings: pH 3.01, aqueous buffer, Solubility of Iloperidone in Aqueous Buffer
quantity.measured: solubility (µg/mL)

{"smiles.str": "COc1cc(C(C)=O)ccc1OCCCN1CCC(c2noc3cc(F)ccc23)CC1", "unit.text": "µg/mL", "readout.value": 1440}
